Origin of measurements: PubChem BioAssay (NCI)

- Tested on: MOLT-4 leukemia
- measurement_description: NCI-60 one-dose screen, 48 h
- test_parameters: 10 µM unless noted
About 83,000 compounds went through this panel and 20% of them were active in at least one assay; those are over-represented in the sample as a whole. The source made the active and inactive calls. How the source made its calls: active means growth percent below 10; inactive means the rest.
# valid calls are class 1 (active), class 0 (inactive); nothing else

The following compounds have reported results that may help.
>>> group("COc1ccc(/C=N/NC(=O)c2ccc(S(C)(=O)=O)cc2)cc1OC")
"class 0"
>>> group("COc1ccc(-c2nn(-c3cccc(Cl)c3)cc2C2CC(c3ccccc3)=NN2C(C)=O)cc1 (stereo not given)")
"class 0"
>>> group("CCCCn1c(Cc2ccc(Cl)cc2)nc2cc(OC)c(OC)cc2c1=O")
"class 1"
>>> group("CC(=O)Oc1ccc(C23c4ccccc4C2(OC(C)=O)c2cc(OC(C)=O)ccc23)cc1 (stereo not given)")
"class 0"
>>> group("O=C(Nc1cccc(C(F)(F)F)c1)Nc1ccc(OCc2nnc(-c3ccc(Cl)cc3)o2)c(F)c1")
"class 0"

Identify the outcome logged in this assay for the compound shown: NC(=O)c1ncn([C@@H]2O[C@H](CO)[C@@H](O)[C@H]2O)n1
class 0

Identify the outcome logged in this assay for the compound shown: CCCCCCCCCCCCCCCCCC1=NC(C)(C)CN1CCO
class 1

---

Task for the reader: assign each of the following compounds its reported growth.
- Tested on: NCI/ADR-RES ovarian
- measurement_description: NCI-60 one-dose screen, 48 h (100 = growth as untreated, 0 = no growth, -100 = all killed)
- test_parameters: 10 µM unless noted
This is part of a sample that, as a whole, favours compounds with a hit. Of some 83,000 tested, about 20% had one in any assay.
Numbers only, in %.

>>> quantitative_readout("COc1ccc(C2CC(c3ccc(OC)c(OC)c3)=NN2C(=O)c2cc(OC)c(OC)c(OC)c2)cc1 (stereo not given)")
13

Can you give me growth for all of these, one by one?
1. CC12CCC3C(CCC4CC(=O)/C(=C\O)CC43C)C1CCC(=O)O2 (stereo not given)
2. O=C(CCc1nnc2sc(Cc3ccccc3Cl)nn12)c1nc2ccccc2[nH]1
3. CCCCCCCCCCCCCCCCCC1=NC(C)(C)CN1CCO

1: 96.1; 2: 95.9; 3: 55.5

Can you give me growth for all of these, one by one?
1. CCn1c2ccccc2c2ccc(C(C)=O)cc21
2. COc1cc2c(cc1OCCCOc1ccc(-c3cc4ccccc4c4ccccc34)cc1)N=C[C@@H]1CCCN1C2=O
3. C=C(C)[C@@H]1C/C=C(/C=O)CC[C@@H]2O[C@@]2(C)CC/C=C(\C)CC1
4. Cc1cc(NC(=O)Nc2cccc3ccccc23)no1
5. O=C(/C(=N/O)S(=O)(=O)c1ccccc1)c1cccs1
6. CN1CCN(Cc2ccc(NC(=O)c3[nH]ncc3Nc3ccnc4ccnn34)cc2)CC1

101
-46.1
115
103
97.3
107

---

- Tested on: SF-268 CNS
- measurement_description: NCI-60 one-dose screen, 48 h (100 = growth as untreated, 0 = no growth, -100 = all killed)
- test_parameters: 10 µM unless noted
This is part of a sample that, as a whole, favours compounds with a hit. Of some 83,000 tested, about 20% had one in any assay.
attribute_measured: growth (%)
One number for each entry, in %.

Before answering, review these 5 worked examples.
>>> quantitative_readout("Oc1ccc(-c2nn(-c3ccccc3)cc2-c2nc3ccccc3s2)cc1")
97.3
>>> quantitative_readout("C[C@]12CC[C@@H]3c4ccc(O)c([N+](=O)[O-])c4CC[C@H]3[C@@H]1CC[C@@H]2NS(=O)(=O)c1cccc(Br)c1")
36.2
>>> quantitative_readout("CC1=CSC2=NCCN12")
102
>>> quantitative_readout("Cc1c(C(N)=O)sc2ncn(Cc3ccccc3)c(=O)c12")
104
>>> quantitative_readout("C/C(=C\\CCc1ccoc1)CC/C=C(\\C)CCCN1CCC(CO)CC1")
79.2

Can you give me growth for all of these, one by one?
1. CCOc1cccc(C2CC(=O)Nc3cc4c(cc32)OCO4)c1 (stereo unspecified)
2. Cn1cc(-c2csc(-c3cn(C)c4ncccc34)n2)c2cc(F)cnc21
3. O=C(/C=C/c1cc2ccccc2[nH]c1=O)c1ccc(O)cc1
4. Cc1ccc(C(C)C)cc1NC(=O)Nc1ccc([N+](=O)[O-])cc1
5. OCc1nnn(-c2ccccc2)c1CO
6. COc1cc(Oc2cc(-c3cccnc3)ccc2NC(=O)Nc2ccc(F)cc2F)cc(OC)c1OC

89.4
95.4
20.4
29.9
105
107
